Each recorded value in this set is attributed to paper PMC10786891.

Examples of binders with documented pKd follow.
# TARGET SYSTEM: T1, EsCas13d, nuclease-dead (Eubacterium siraeum, UniProt B0MS50, R295A;H300A;R849A;H854A)
# T1 sequence: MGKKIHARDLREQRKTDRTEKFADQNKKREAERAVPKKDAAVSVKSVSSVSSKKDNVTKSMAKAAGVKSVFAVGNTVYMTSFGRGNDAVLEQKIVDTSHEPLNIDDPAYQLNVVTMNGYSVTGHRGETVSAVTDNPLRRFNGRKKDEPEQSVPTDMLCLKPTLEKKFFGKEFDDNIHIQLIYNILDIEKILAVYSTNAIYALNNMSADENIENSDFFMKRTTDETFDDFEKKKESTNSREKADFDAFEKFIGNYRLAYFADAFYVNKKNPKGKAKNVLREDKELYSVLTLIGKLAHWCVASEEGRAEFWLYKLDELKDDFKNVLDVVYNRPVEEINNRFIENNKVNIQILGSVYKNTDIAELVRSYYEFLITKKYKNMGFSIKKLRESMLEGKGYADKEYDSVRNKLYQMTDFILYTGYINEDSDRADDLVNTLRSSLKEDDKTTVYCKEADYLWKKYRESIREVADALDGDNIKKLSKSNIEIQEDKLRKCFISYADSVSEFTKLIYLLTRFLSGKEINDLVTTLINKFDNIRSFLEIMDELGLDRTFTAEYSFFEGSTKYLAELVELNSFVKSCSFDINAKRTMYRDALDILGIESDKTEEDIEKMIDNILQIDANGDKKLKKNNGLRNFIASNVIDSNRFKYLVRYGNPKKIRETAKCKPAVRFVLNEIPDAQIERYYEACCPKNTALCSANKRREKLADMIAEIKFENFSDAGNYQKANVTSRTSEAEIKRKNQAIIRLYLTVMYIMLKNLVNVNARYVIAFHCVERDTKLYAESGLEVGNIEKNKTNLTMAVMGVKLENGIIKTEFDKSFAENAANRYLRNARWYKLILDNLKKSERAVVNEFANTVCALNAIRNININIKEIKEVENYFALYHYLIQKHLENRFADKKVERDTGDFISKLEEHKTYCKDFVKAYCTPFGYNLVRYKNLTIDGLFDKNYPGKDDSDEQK
# PROTOCOL SUMMARY: crRNA (strand 1, pre-loaded); Mg2+; 40 mM Tris-HCl pH 7.5, 150 mM NaCl, 6 mM MgCl2, 1 mM DTT, 0.1% Tween-20, 0.2 mg/ml BSA; 25 C; 10 min per concentration, then washed
# PROTOCOL CONDITIONS: tags: His6-TwinStrep-SUMO cleaved; N-terminal SNAP kept (SNAP-Surface 488); label: 3' end held by stalled T7 RNA polymerase
pKd: −log10 of the molar value.
VALUE KIND: pKd

1. target 1 C4U,G5U (mixed) RNA 1: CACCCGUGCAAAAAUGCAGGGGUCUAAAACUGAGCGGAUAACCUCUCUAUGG RNA 2: GGGAAUGGAUCCACAUCUACGAAUUCGUACCAUAGAGAGGUUAUCCUUUCACCGAGAUCGGAAGAGCACACGU : 7.31
2. target 2 MT 5'PFS UUA 3'PFS AAA (mixed) RNA 1: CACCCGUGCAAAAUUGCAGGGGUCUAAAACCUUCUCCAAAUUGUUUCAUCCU RNA 2: GGGAAUGGAUCCACAUCUACGAAUUCUUAAGGAUGAAACAAUUUGGAGAAGAAAAGAUCGGAAGAGCACACGU : 7.84
3. target 1 MT 5'PFS UCA 3'PFS UCC (mixed) RNA 1: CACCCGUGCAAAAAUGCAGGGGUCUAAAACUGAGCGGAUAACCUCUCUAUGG RNA 2: GGGAAUGGAUCCACAUCUACGAAUUCUCACCAUAGAGAGGUUAUCCGCUCAUCCAGAUCGGAAGAGCACACGU : 7.90
4. target 2 MT 5'PFS UUC 3'PFS CAG (mixed) RNA 1: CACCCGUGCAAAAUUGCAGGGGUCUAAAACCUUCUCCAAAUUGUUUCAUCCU RNA 2: GGGAAUGGAUCCACAUCUACGAAUUCUUCAGGAUGAAACAAUUUGGAGAAGCAGAGAUCGGAAGAGCACACGU : 8.19
5. target 1 insG 3' of 18,insG 3' of 1 (mixed) RNA 1: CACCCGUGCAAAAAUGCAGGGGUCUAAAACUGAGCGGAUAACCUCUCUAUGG RNA 2: GGGAAUGGAUCCACAUCUACGAAUUCGUACCAUAGGAGAGGUUAUCCGCUCAGCCGAGAUCGGAAGAGCACACGU : 7.26
6. target 3 insA 3' of 6,insG 3' of 6 (mixed) RNA 1: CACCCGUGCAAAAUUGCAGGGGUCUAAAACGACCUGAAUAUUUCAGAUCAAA RNA 2: GGGAAUGGAUCCACAUCUACGAAUUCGUUUUUGAUCUGAAAUAUUCAGAGGUCUGCAGAUCGGAAGAGCACACGU : 7.39
7. target 2 MT 5'PFS GAC 3'PFS ACA (mixed) RNA 1: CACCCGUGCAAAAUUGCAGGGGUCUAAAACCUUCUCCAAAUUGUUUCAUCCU RNA 2: GGGAAUGGAUCCACAUCUACGAAUUCGACAGGAUGAAACAAUUUGGAGAAGACAAGAUCGGAAGAGCACACGU : 7.89
8. target 1 insA 3' of 8,insC 3' of 5 (mixed) RNA 1: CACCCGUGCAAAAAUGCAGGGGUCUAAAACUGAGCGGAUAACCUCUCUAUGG RNA 2: GGGAAUGGAUCCACAUCUACGAAUUCGUACCAUAGAGAGGUUAUACCGCCUCACCGAGAUCGGAAGAGCACACGU : 8.03
